Would you kindly list T/C for each of these compounds?
Test system: L1210 leukemia ip in BDF1 mice, survival T/C
Assay: NCI In Vivo Anticancer Drug Screen. Data for tumor model L1210 Leukemia (intraperitoneal) in B6D2F1 (BDF1) mice
Conditions: endpoint: mean survival time; dose: 200.0 mg/kg/injection; schedule: Q04DX003 (ip); vehicle: Klucel (hydroxypropylcellulose) (HPC); higher = longer survival
Toxic doses and inconclusive results are not listed.

// worked examples, T/C included
compound	assay.system	T/C
CC(=O)CC(C)(C)NC(=S)NN	L1210 leukemia ip in BDF1 mice, survival T/C	101 % of control
CC(=O)Nc1cccc(Cc2ccccc2)c1	L1210 leukemia ip in BDF1 mice, survival T/C	103 % of control
CCN(CC)c1ccc(Cc2ccc(N(CC)CC)cc2Br)c(Br)c1	L1210 leukemia ip in BDF1 mice, survival T/C	104 % of control
CC1=Nc2cc(C)c(C)cc2N=C(C)C1	L1210 leukemia ip in BDF1 mice, survival T/C	97 % of control
CCOC(=O)c1c(C)[nH]c(-c2ccccc2)c1C	L1210 leukemia ip in BDF1 mice, survival T/C	100 % of control
CCOC(=O)c1c[nH]c(C)c1C	L1210 leukemia ip in BDF1 mice, survival T/C	109 % of control
O=CN/N=C/c1cc(Cl)cc(Cl)c1O	L1210 leukemia ip in BDF1 mice, survival T/C	92 % of control
Cc1ccc([N+](=O)[O-])c(C)c1	L1210 leukemia ip in BDF1 mice, survival T/C	104 % of control

Go through the items and report each one's T/C.
1. Cc1c([N+](=O)[O-])cc(C(C)(C)C)c(OC(=O)Nc2ccc(Cl)cc2)c1[N+](=O)[O-]
2. O=C1c2cc(Cl)cc(Cl)c2-c2c1cc(Cl)cc2[N+](=O)[O-]
3. Cc1cc(Cl)ccc1NC(=O)c1cccc(C(=O)Nc2ccc(Cl)cc2C)c1
4. BrC1C2C=CC(C2)C1Br (stereo not drawn)

Marked response:
1: 92 % of control; 2: 97 % of control; 3: 90 % of control; 4: 100 % of control

Go through the items and report each one's T/C.
1. CCC(c1ccc2cc(OC)ccc2c1)C(CC(=O)O)C(=O)OC (stereo not drawn)
2. CC(=O)NC(C)CCC(C)C (stereo not drawn)
3. Cc1cccc(C)c1NC(=O)c1cccc(C(=O)Nc2c(C)cccc2C)c1
4. COc1cc(/C=C/C(=O)O)cc(Br)c1O
5. CCCCCCCCCCCCCCCc1cc(=O)n(-c2cccc([N+](=O)[O-])c2)n1C
6. COc1ccc(OC)c(NC(=O)Nc2ccc(Nc3ccccc3)cc2)c1

Marked response:
1. 96 % of control
2. 100 % of control
3. 87 % of control
4. 101 % of control
5. 94 % of control
6. 93 % of control
